Tested on: SW-620 colon
METHOD_NOTES: NCI-60 one-dose screen, 48 h (100 = growth as untreated, 0 = no growth, -100 = all killed)
MEASUREMENT_CONTEXT: 10 µM
The panel holds about 83,000 compounds, 20% with a hit somewhere; the sample as a whole holds those more often.
MEASUREMENT_NAME: growth (%)
Please respond with the number in % and leave the unit unwritten.

O=C1/C(=C/c2ccc([N+](=O)[O-])s2)Oc2cc(Cl)ccc21; -40.9
O=c1c(Br)ccc(Br)cc1Br; -46.5
OC(CCN1CCCC1)(c1ccccc1)C1CCCCC1 (stereo unspecified); 105
CC(=O)Nc1ccc(S(=O)(=O)N/N=C(\C)c2ccc(C)cc2C)cc1; 101

In: What reported growth corresponds to NS(=O)(=O)Oc1ccc(NC(=O)C2CCCCCC2)cc1 on SW-620 colon?
Out: 106

In: What reported growth corresponds to O=C(Cn1cc(CO)nn1)Nc1nc2ccccc2s1 on SW-620 colon?
Out: 106

###

Tested on: MALME-3M melanoma
METHOD_NOTES: NCI-60 one-dose screen, 48 h
MEASUREMENT_CONTEXT: 10 µM
Compounds without any hit were thinned out: in the full panel of roughly 83,000, 20% have a hit. Active and inactive are the calls of the source. How the source made its calls: active means growth percent below 10; inactive means the rest.
Bench note: report the call from 1 (yes) for active, 0 (no) for inactive

S=C(SSC(=S)N(c1ccccc1)c1ccccc1)N(c1ccccc1)c1ccccc1; 0 (no)
Cc1ccc(-n2c(C)nn3c(=O)c4c5c(sc4nc23)CN(C)CC5)cc1; 0 (no)
C=C/C(C)=C/C[C@]1(C)[C@H](C)[C@@H](OC(=O)CCC)[C@H](O)[C@@]23C(=C[C@H](OC)C[C@@H]12)[C@@H](OC(=O)CCC)O[C@H]3OC(C)=O; 1 (yes)
CCCc1nc(C(C)(C)O)c(C(=O)O)n1Cc1ccc(-c2ccccc2-c2nn[nH]n2)cc1; 0 (no)
CC(C)(O)CCl; 0 (no)

In: Called result for CN1C(=O)C2(Nc3cc(Cl)ccc3S2)c2cc(Cl)ccc21 (configuration not stated)
Out: 0 (no)

In: Called result for CCCCCCCCCCOC(c1ccccc1)c1ccccc1
Out: 0 (no)

In: Called result for CC[C@@H](C(=O)[C@@H](C)[C@@H](O)[C@H](C)[C@@H]1O[C@@H]([C@@H](CC)C(=O)N(CC)CC)CC[C@@H]1C)C1O[C@]2(C=CC(=O)[C@]3(CC[C@@](C)([C@H]4CC[C@](O)(CC)[C@H](C)O4)O3)O2)[C@H](C)C[C@@H]1C (some centres not stated)
Out: 1 (yes)

In: Called result for CC(=O)Nc1ccc(CC[C@H]2CCC/C=C/[C@@H]3C[C@H](O)C[C@H]3[C@H](O)/C=C/C(=O)O2)cc1
Out: 1 (yes)

In: Called result for O=C(NCCCNS(=O)(=O)c1ccc(Cl)cc1)Nc1ccc(-n2cc(-c3ccncc3)c(-c3ccc(Cl)c(O)c3)n2)cc1
Out: 0 (no)

In: Called result for N#Cc1c(-c2ccc(Cl)cc2)n(O)c2ccccc12
Out: 1 (yes)

In: Called result for CC(=O)Oc1cc(OC(C)=O)c2ccccc2c1OC(C)=O
Out: 0 (no)

###

growth listing for selected compounds.
Test system: HCT-116 colon
METHOD_NOTES: NCI-60 one-dose screen, 48 h (100 = growth as untreated, 0 = no growth, -100 = all killed)
MEASUREMENT_CONTEXT: 10 µM
This is part of a sample that, as a whole, favours compounds with a hit. Of some 83,000 tested, about 20% had one in any assay.
Please respond with the number in % and leave the unit unwritten.

CC(=O)[C@H]1CC[C@]2(C)[C@@H]1CC[C@@H]1[C@@]3(C)CC(CCC#N)(CCC#N)C(=O)C(C)(C)[C@@H]3CC[C@]12C; 96
O=C1CCn2c1c(O)c1ccccc1c2=O; 107
COc1cc(C2CC(c3ccccc3)=NN2C(C)=O)cc(OC)c1OC (stereo not given); 19.3

In: Sample CCc1c2c(nc3ccc(OC(=O)N4CCC(N5CCCCC5)CC4)cc13)-c1cc3c(c(=O)n1C2)COC(=O)[C@]3(O)CC — what was its growth?
Out: 22

In: Sample O=C(N/N=C/c1cc([N+](=O)[O-])ccc1O)c1cccc2ccccc12 — what was its growth?
Out: 18.4

In: Sample O=C(CI)OCC(COC(=O)CI)OC(=O)CI — what was its growth?
Out: 56.3

In: Sample COc1cc(-c2nn(-c3cccc(NC(=O)CN4CCOCC4)c3)cc2-c2cccnc2)ccc1Cl — what was its growth?
Out: 82.7

In: Sample CCOC(=O)c1cc(C(=O)c2ccc(F)cc2F)n2ccccc12 — what was its growth?
Out: 92.5

In: Sample CCOC(=O)/C(=C(\C)N)C1CC(=O)NC1=O (stereo not given) — what was its growth?
Out: 107

In: Sample CCNc1nc(C(F)(F)F)nc2c1sc(=S)n2-c1ccccc1 — what was its growth?
Out: 94.3
